The measurements presented in this section are drawn from patent US20250333419A1.

EXPERIMENTAL SYSTEM: WRN (Homo sapiens, UniProt Q14191)
Construct: A His-tagged construct of WRN (AA S2-S1235) was produced and used for the ATPase assay; His; made in house; host or cells: Sf9 insect cells (baculovirus)
Sequence (Q14191 2-1235): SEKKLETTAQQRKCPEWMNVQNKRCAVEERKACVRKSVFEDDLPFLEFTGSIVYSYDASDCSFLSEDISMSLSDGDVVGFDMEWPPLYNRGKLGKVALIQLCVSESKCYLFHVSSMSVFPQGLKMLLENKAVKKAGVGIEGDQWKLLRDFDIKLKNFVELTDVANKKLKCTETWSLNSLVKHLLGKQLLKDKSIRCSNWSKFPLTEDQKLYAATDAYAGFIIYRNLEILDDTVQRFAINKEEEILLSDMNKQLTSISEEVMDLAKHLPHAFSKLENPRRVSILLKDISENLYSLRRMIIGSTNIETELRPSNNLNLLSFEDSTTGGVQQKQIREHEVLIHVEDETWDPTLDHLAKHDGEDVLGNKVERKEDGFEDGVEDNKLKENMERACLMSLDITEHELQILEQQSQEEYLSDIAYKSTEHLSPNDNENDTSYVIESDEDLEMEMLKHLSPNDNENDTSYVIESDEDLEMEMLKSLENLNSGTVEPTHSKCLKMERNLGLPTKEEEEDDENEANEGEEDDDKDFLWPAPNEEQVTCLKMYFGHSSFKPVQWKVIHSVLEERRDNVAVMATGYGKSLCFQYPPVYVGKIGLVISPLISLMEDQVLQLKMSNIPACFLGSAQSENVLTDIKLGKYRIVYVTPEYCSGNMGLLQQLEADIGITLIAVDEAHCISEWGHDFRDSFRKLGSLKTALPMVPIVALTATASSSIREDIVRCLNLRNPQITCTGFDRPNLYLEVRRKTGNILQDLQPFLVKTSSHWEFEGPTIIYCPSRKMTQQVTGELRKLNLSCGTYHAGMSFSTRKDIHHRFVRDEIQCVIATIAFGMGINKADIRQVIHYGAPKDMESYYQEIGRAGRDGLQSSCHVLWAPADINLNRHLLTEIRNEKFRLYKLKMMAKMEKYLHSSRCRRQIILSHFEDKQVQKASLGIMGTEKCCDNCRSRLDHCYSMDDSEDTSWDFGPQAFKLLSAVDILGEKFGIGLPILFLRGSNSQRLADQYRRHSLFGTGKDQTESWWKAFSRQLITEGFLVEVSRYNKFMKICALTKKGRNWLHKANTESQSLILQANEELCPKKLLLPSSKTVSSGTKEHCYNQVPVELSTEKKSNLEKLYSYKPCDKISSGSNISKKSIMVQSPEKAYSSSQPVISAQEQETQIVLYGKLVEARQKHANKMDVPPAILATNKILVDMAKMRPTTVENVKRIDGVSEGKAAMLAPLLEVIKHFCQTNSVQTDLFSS
METHOD SUMMARY: WRN Helicase activity assay (fluorescence DNA unwinding)
Format: biochemical
TEST SETTINGS: IC50, 1-hr pre-incubation with enzyme; geometric means of at least 2 independent replicates
Examples of compounds with documented IC50 follow.

Below: 3 compounds and their reported IC50.
{"columns": ["COMPOUND", "IC50"],
 "data": [
  ["C=CC(=O)Nc1ccccc1-c1c(CC)n(CC(=O)Nc2ccc(C(F)(F)F)cc2)c2nc(C3CCN(C(=O)C=C)CC3)nn2c1=O", "< 100 nM"],
  ["CCc1c(-c2ccccc2NC(=O)/C(C#N)=C/C(C)C)c(=O)n2nc(C3=CCOCC3)nc2n1CC(=O)Nc1ccc(C(F)(F)F)cc1 (single isomer, unassigned)", "< 100 nM"],
  ["C=CC(=O)Nc1c(C)cccc1-c1c(CC)n(CC(=O)Nc2ccc(C(F)(F)F)cc2)c2nc(C3=CCOCC3)nn2c1=O", "500 to 1000 nM"]
]}

Need IC50, item `C=CC(=O)Nc1ccc(C)cc1-c1c(CC)n(CC(=O)Nc2ccc(C(F)(F)F)cc2)c2nc(C3=CCOCC3)nn2c1=O`
500 to 1000 nM

Queued: `C=CC(=O)Nc1ccc(Cl)cc1-c1c(CC)n(CC(=O)Nc2ccc(C(F)(F)F)cc2)c2nc(C3=CCOCC3)nn2c1=O`
500 to 1000 nM

Next compound: `C=CC(=O)Nc1ccccc1-c1c(CC)n(CC(=O)Nc2ccc(C(F)(F)F)cc2)c2nc(C3CC3)nn2c1=O`
< 100 nM

And what about the compound `C=CS(=O)(=O)Nc1ccccc1-c1c(CC)n(CC(=O)Nc2ccc(C(F)(F)F)cc2)c2nc(C3=CCOCC3)nn2c1=O` ?
< 100 nM

----------
EXPERIMENTAL SYSTEM: WRN (Homo sapiens, UniProt Q14191)
Construct: A His-tagged construct of WRN (AA S2-S1235) was produced and used for the ATPase assay; His; made in house; host or cells: Sf9 insect cells (baculovirus)
METHOD SUMMARY: WRN ATPase activity assay (ADP-Glo)
Format: biochemical
TEST SETTINGS: IC50, 1-hr pre-incubation with enzyme; geometric means of at least 2 independent replicates
MEASURE: IC50

The examples below pair each entry with its known result.
{"columns": ["SMILES RECORD", "MEASURE", "RESULT"],
 "data": [
  ["C=CC(=O)Nc1ccc(Cl)cc1-c1c(CC)n(CC(=O)Nc2ccc(C(F)(F)F)cc2)c2nc(C3=CCOCC3)nn2c1=O", "IC50", "500 to 1000 nM"],
  ["C=CC(=O)Nc1ccccc1-c1c(CC)n(CC(=O)Nc2ccc(C(F)(F)F)cc2)c2nc(C3CCC3)nn2c1=O", "IC50", "100 to 500 nM"],
  ["C=CC(=O)N(C)c1ccccc1-c1c(CC)n(CC(=O)Nc2ccc(C(F)(F)F)cc2)c2nc(C3=CCOCC3)nn2c1=O", "IC50", "< 100 nM"]
]}

We now examine a further molecule.
API: value(readout=IC50, system=WRN (Homo sapiens, UniProt Q14191)) for record `C=CC(=O)Nc1ccccc1-c1c(CC)n(CC(=O)Nc2ccc(C(F)(F)F)cc2)c2nc(C3=CCOCC3)nn2c1=O`
< 100 nM

----------
EXPERIMENTAL SYSTEM: WRN (Homo sapiens, UniProt Q14191)
Construct: A His-tagged construct of WRN (AA S2-S1235) was produced and used for the ATPase assay; His; made in house; host or cells: Sf9 insect cells (baculovirus)
METHOD SUMMARY: WRN ATPase activity assay (ADP-Glo)
Type: biochemical
TEST SETTINGS: IC50, 1-hr pre-incubation with enzyme; geometric means of at least 2 independent replicates
pIC50: −log10 of the molar value.
Catalogue of molecules with associated pIC50

Completed entries (count: 3):
{"columns": ["MOLECULE", "RESULT"],
 "data": [
  ["C=CC(=O)Nc1cc(C(F)(F)F)ccc1-c1c(CC)n(CC(=O)Nc2ccc(C(F)(F)F)cc2)c2nc(C3=CCOCC3)nn2c1=O", "> 7.00"],
  ["C=CS(=O)(=O)Nc1ccccc1-c1c(CC)n(CC(=O)Nc2ccc(C(F)(F)F)cc2)c2nc(C3=CCOCC3)nn2c1=O", "> 7.00"],
  ["CCc1c(-c2ccccc2NC(=O)/C(C#N)=C\\C(C)C)c(=O)n2nc(C3=CCOCC3)nc2n1CC(=O)Nc1ccc(C(F)(F)F)cc1 (single isomer, unassigned)", "6.00 to 6.30"]
]}

Param item = `C=CC(=O)N1CCc2cccc(-c3c(CC)n(CC(=O)Nc4ccc(C(F)(F)F)cc4)c4nc(C5=CCOCC5)nn4c3=O)c21` ; retrieve measured pIC50.
> 7.00

Moving on to the next molecule: `C=CC(=O)N1CCCC=C1c1c(CC)n(CC(=O)Nc2ccc(C(F)(F)F)cc2)c2nc(C3=CCOCC3)nn2c1=O`
> 7.00

Item: `C=CC(=O)Nc1ccccc1-c1c(CC)n(CC(=O)Nc2ccc(C(F)(F)F)cc2)c2nc(C3CCN(C(=O)C=C)CC3)nn2c1=O`
> 7.00

----------
EXPERIMENTAL SYSTEM: WRN helicase (Homo sapiens)
Construct: His-tagged WRN construct used for biochemical characterization (aa S2-S1235); His; made in house; host or cells: Sf9 insect cells (baculovirus)
METHOD SUMMARY: ATPase assay on WRN helicase (ADP-Glo) with varied preincubation times
Format: biochemical
TEST SETTINGS: preincubation 2 hrs
MEASURE: pIC50
Would you please state pIC50, meaning minus log10 of the concentration in mol/L, as a bare number?

Test system WRN helicase (Homo sapiens); read-out pIC50; what value for `C=CC(=O)Nc1ccccc1-c1c(CC)n(CC(=O)Nc2ccc(C(F)(F)F)cc2)c2nc(C3=CCOCC3)nn2c1=O` ?
7.92

----------
EXPERIMENTAL SYSTEM: WRN Cys727Ser (Homo sapiens, UniProt Q14191, C727S)
Construct: Point mutations were made in the His-tagged WRN construct used for biochemical characterization (aa S2-S1235); His
METHOD SUMMARY: ATPase assay on WRN Cys727Ser mutant, without preincubation
TEST SETTINGS: Cys727Ser
Excerpt: Point mutations were made in the His-tagged WRN construct used for biochemical characterization (aa S2-S1235). […] Table 7 is the panel of the nine variant WRN helicase proteins that were screened using ADP-Glo assay to measure DNA stimulated ATPase activity, with an increase in luminescence indicating ATP hydrolysis. […]
MEASURE: pIC50
Scale explanation: pIC50 corresponds to minus log10 of a concentration expressed in moles per litre.

If you can, please state the reported pIC50 value of C=CC(=O)Nc1ccccc1-c1c(CC)n(CC(=O)Nc2ccc(C(F)(F)F)cc2)c2nc(C3=CCOCC3)nn2c1=O [Example 1] .
4.41

----------
EXPERIMENTAL SYSTEM: WRN helicase (Homo sapiens, UniProt Q14191)
Construct: His-tagged WRN construct used for biochemical characterization (aa S2-S1235); His; made in house; host or cells: Sf9 insect cells (baculovirus)
METHOD SUMMARY: ATPase assay on WRN helicase (ADP-Glo) with varied preincubation times
Assay type: biochemical
TEST SETTINGS: preincubation 4 hrs
MEASURE: pIC50
Schema: pIC50 number; meaning minus log10 of the concentration expressed in molar units.

Return reported pIC50; argument: `C=CC(=O)Nc1ccccc1-c1c(CC)n(CC(=O)Nc2ccc(C(F)(F)F)cc2)c2nc(C3=CCOCC3)nn2c1=O`
8.10

----------
EXPERIMENTAL SYSTEM: WRN Cys727Ala (Homo sapiens, UniProt Q14191, C727A)
Construct: Point mutations were made in the His-tagged WRN construct used for biochemical characterization (aa S2-S1235); His
Sequence (Q14191 2-1235 C727A): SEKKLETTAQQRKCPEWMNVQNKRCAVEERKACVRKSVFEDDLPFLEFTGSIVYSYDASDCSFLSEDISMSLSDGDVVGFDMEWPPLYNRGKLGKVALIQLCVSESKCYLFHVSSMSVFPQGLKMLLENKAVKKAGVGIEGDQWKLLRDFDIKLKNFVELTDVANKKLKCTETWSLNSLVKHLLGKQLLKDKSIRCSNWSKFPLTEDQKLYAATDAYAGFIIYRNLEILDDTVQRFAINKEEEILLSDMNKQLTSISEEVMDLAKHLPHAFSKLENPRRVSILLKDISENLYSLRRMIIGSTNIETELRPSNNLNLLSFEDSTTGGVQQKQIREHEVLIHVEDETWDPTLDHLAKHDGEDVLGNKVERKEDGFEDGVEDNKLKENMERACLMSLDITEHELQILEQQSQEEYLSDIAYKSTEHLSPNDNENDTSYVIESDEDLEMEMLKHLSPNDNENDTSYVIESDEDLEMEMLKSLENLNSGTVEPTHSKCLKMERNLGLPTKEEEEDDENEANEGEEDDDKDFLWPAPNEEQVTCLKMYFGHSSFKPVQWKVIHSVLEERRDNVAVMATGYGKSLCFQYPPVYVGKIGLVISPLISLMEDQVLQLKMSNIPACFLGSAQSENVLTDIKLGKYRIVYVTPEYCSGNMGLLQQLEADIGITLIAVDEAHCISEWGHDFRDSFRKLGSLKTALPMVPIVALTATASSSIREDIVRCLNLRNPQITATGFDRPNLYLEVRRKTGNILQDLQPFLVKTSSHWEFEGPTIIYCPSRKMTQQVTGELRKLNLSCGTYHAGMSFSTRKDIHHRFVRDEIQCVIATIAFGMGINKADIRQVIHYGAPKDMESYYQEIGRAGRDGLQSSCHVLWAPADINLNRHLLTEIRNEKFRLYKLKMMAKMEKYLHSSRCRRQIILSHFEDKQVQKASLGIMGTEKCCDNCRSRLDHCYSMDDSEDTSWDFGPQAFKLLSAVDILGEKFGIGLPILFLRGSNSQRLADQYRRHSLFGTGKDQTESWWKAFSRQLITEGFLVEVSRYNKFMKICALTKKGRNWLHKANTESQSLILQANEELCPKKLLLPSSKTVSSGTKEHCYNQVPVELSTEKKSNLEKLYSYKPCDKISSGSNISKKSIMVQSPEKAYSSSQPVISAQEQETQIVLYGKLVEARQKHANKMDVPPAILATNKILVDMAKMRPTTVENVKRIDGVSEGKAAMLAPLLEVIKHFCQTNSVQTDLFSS
METHOD SUMMARY: ATPase assay on WRN Cys727Ala mutant, without preincubation
TEST SETTINGS: Cys727Ala, without preincubation
MEASURE: IC50 (µM)
Dear colleague, please return just the value in µM, with no unit written.

Fill in: IC50 of `C=CC(=O)Nc1ccccc1-c1c(CC)n(CC(=O)Nc2ccc(C(F)(F)F)cc2)c2nc(C3=CCOCC3)nn2c1=O` is ___
5.82

----------
EXPERIMENTAL SYSTEM: WRN (Homo sapiens, UniProt Q14191)
Construct: A His-tagged construct of WRN (AA S2-S1235) was produced and used for the ATPase assay; His; made in house; host or cells: Sf9 insect cells (baculovirus)
METHOD SUMMARY: WRN Helicase activity assay (fluorescence DNA unwinding)
Type: biochemical
TEST SETTINGS: IC50, 1-hr pre-incubation with enzyme; geometric means of at least 2 independent replicates
Entries annotated with measured IC50

Worked examples follow.
{"columns": ["SMILES RECORD", "RESULT"],
 "data": [
  ["C=CC(=O)Nc1cc(F)ccc1-c1c(CC)n(CC(=O)Nc2ccc(C(F)(F)F)cc2)c2nc(C3=CCOCC3)nn2c1=O", "< 100 nM"],
  ["CCOC(=O)/C=C/C(=O)Nc1ccccc1-c1c(CC)n(CC(=O)Nc2ccc(C(F)(F)F)cc2)c2nc(C3=CCOCC3)nn2c1=O", "1000 to 2000 nM"],
  ["C=CC(=O)Nc1ccccc1-c1c(CC)n(CC(=O)Nc2ccc(C(F)(F)F)cc2)c2nc(C)nn2c1=O", "500 to 1000 nM"]
]}

# query: IC50 of entry `C=CC(=O)Nc1ccccc1-c1c(CC)n(CC(=O)Nc2ccc(C(F)(F)F)cc2Cl)c2nc(C3=CCOCC3)nn2c1=O`
< 100 nM

Repeat with `C=CC(=O)Nc1ccccc1-c1c(CC)n(CC(=O)Nc2ccc(C(F)(F)F)cc2)c2nc(C3CCCCC3)nn2c1=O`
100 to 500 nM

Now give it for `C=CC(=O)Nc1ccccc1-c1c(CC)n(CC(=O)Nc2ccc(C(F)(F)F)cc2Cl)c2nc(C(C)C)nn2c1=O` too.
100 to 500 nM
